species: Rattus norvegicus; assay: DrugMatrix - Regimen: Daily Repeat; type: toxicity, organism-based, Sprague-Dawley; set-up: regimen Daily Repeat, gender Male, age 6-8 weeks; settings: in vivo, po, 0 mg/kg, 72 h, tissue Blood, route oral GAVAGE, dose level Control, time 3 day, vehicle .5 % CMC
Threshold rule: NEUTROPHIL greater than or equal to 10% is true; below that, false.

[Q] Assess whether reported NEUTROPHIL for CC[C@@H](CO)NCCN[C@@H](CC)CO sits at 10% or higher.
[A] true

[Q] Assess whether reported NEUTROPHIL for OC(CCN1CCCCC1)(c1ccccc1)C1CCCCC1 (stereo not given) sits at 10% or higher.
[A] true

[Q] Assess whether reported NEUTROPHIL for C[C@](O)(CS(=O)(=O)c1ccc(F)cc1)C(=O)Nc1ccc(C#N)c(C(F)(F)F)c1 [(R)-BICALUTAMIDE] sits at 10% or higher.
[A] false

[Q] Assess whether reported NEUTROPHIL for CN1CCC(=C2c3ccccc3C=Cc3ccccc32)CC1 sits at 10% or higher.
[A] true

[Q] Assess whether reported NEUTROPHIL for CC(C)[C@H]1CC[C@H](C(=O)N[C@H](Cc2ccccc2)C(=O)O)CC1 [NATEGLINIDE] sits at 10% or higher.
[A] false

###

species: Rattus norvegicus; experiment: DrugMatrix - Regimen: Daily Repeat; format: toxicity, organism-based, Sprague-Dawley; parameters: regimen Daily Repeat, gender Male, age 6-8 weeks; details: in vivo, po, 0 mg/kg, 120 h, tissue Blood, route oral GAVAGE, dose level Control, time 5 day, vehicle .5 % CMC
Field: MEAN CORPUSCULAR HEMOGLOBIN CONCENTRATION. Provide a value for each of the molecules that follow.
Use G/DL as the unit, but write only the number.

[Q] Recorded MEAN CORPUSCULAR HEMOGLOBIN CONCENTRATION for CN1CCC(=C2c3ccccc3C=Cc3ccccc32)CC1 , please?
[A] 38.25

[Q] Recorded MEAN CORPUSCULAR HEMOGLOBIN CONCENTRATION for C#C[C@]1(O)CC[C@H]2[C@@H]3CCc4cc(OC)ccc4[C@H]3CC[C@@]21C , please?
[A] 40.43

[Q] Recorded MEAN CORPUSCULAR HEMOGLOBIN CONCENTRATION for O=C1CCC(N2C(=O)c3ccccc3C2=O)C(=O)N1 (stereo not given) [THALIDOMIDE] , please?
[A] 31.52

[Q] Recorded MEAN CORPUSCULAR HEMOGLOBIN CONCENTRATION for CC(=O)CC(c1ccccc1)c1c(O)c2ccccc2oc1=O (stereo not given) , please?
[A] 38.03

[Q] Recorded MEAN CORPUSCULAR HEMOGLOBIN CONCENTRATION for C[C@](O)(CS(=O)(=O)c1ccc(F)cc1)C(=O)Nc1ccc(C#N)c(C(F)(F)F)c1 [(R)-BICALUTAMIDE] , please?
[A] 38.9

###

species: Rattus norvegicus; assay: DrugMatrix - Regimen: Daily Repeat; assay type: toxicity, organism-based, Sprague-Dawley; set-up: regimen Daily Repeat, gender Male, age 6-8 weeks; conditions: in vivo, ip, 40 mg/kg, […], tissue Blood, route intraperitoneal, dose level High, time 28 day, vehicle 100 % SALINE
metric-name: ABSOLUTE MONOCYTE (cells/µL)
Use cells/µL as the unit, but write only the number.

[Q] Recorded ABSOLUTE MONOCYTE for CCN[C@@H]1C[C@H](N)[C@@H](O[C@H]2OC(CN)=CC[C@H]2N)[C@H](O)[C@H]1O[C@H]1OC[C@](C)(O)[C@H](NC)[C@H]1O , please?
[A] 220

###

species on record: Rattus norvegicus; assay: DrugMatrix - Regimen: Daily Repeat; type: toxicity, organism-based, Sprague-Dawley; design: regimen Daily Repeat, gender Male, age 6-8 weeks; conditions: in vivo, iv, 0 mg/kg, 72 h, tissue Blood, dose level Control, time 3 day, vehicle 100 % SALINE
metric-name: ABSOLUTE MONOCYTE (CELLS/uL)
Use CELLS/uL as the unit, but write only the number.

[Q] Recorded ABSOLUTE MONOCYTE for CCc1c2c(nc3ccc(OC(=O)N4CCC(N5CCCCC5)CC4)cc13)-c1cc3c(c(=O)n1C2)COC(=O)[C@]3(O)CC , please?
[A] 259.5

[Q] Recorded ABSOLUTE MONOCYTE for CC(=O)N[C@@H]1[C@H](Oc2c3cc4cc2Oc2ccc(cc2Cl)[C@@H](O[C@@H]2O[C@@H](CO)[C@@H](O)[C@H](O)[C@@H]2NC(C)=O)[C@@H]2NC(=O)[C@H](NC(=O)[C@@H]4NC(=O)[C@H]4NC(=O)[C@@H](Cc5ccc(c(Cl)c5)O3)NC(=O)[C@H](N)c3ccc(O)c(c3)Oc3cc(O)cc4c3)c3ccc(O)c(c3)-c3c(O[C@H]4O[C@H](CO)[C@@H](O)[C@@H](O)[C@@H]4O)cc(O)cc3[C@@H](C(=O)O)NC2=O)O[C@@H](CO)[C@@H](O)[C@@H]1O , please?
[A] 389.33

[Q] Recorded ABSOLUTE MONOCYTE for COc1cccc2c1C(=O)c1c(O)c3c(c(O)c1C2=O)C[C@@](O)(C(=O)CO)C[C@@H]3O[C@H]1C[C@H](N)[C@@H](O)[C@H](C)O1 [EPIRUBICIN] , please?
[A] 259.5

[Q] Recorded ABSOLUTE MONOCYTE for CC[C@]1(O)C[C@@H]2CN(CCc3c([nH]c4ccccc34)[C@@](C(=O)OC)(c3cc4c(cc3OC)N(C)[C@H]3[C@@](O)(C(=O)OC)[C@H](OC(C)=O)[C@]5(CC)C=CCN6CC[C@]43[C@@H]65)C2)C1 , please?
[A] 165.83

[Q] Recorded ABSOLUTE MONOCYTE for COc1cccc2c1C(=O)c1c(O)c3c(c(O)c1C2=O)C[C@@](O)(C(=O)CO)C[C@@H]3O[C@H]1C[C@H](N)[C@H](O)[C@H](C)O1 , please?
[A] 36.17

[Q] Recorded ABSOLUTE MONOCYTE for CCC1=C[C@@H]2CN(C1)Cc1c([nH]c3ccccc13)[C@@](C(=O)OC)(c1cc3c(cc1OC)N(C)[C@H]1[C@@](O)(C(=O)OC)[C@H](OC(C)=O)[C@]4(CC)C=CCN5CC[C@]31[C@@H]54)C2 , please?
[A] 94.67

###

species on record: Rattus norvegicus; assay: DrugMatrix - Regimen: Daily Repeat; format: toxicity, organism-based, Sprague-Dawley; design: regimen Daily Repeat, gender Male, age 6-8 weeks; settings: in vivo, po, 0 mg/kg, 72 h, tissue Plasma, route oral GAVAGE, dose level Control, time 3 day, vehicle .5 % CMC
Threshold rule: TOTAL PROTEIN greater than or equal to 6 G/DL is satisfied; below that, not satisfied.

[Q] Assess whether reported TOTAL PROTEIN for CC[C@@H](CO)NCCN[C@@H](CC)CO sits at 6 G/DL or higher.
[A] satisfied

[Q] Assess whether reported TOTAL PROTEIN for O=C1CCC(N2C(=O)c3ccccc3C2=O)C(=O)N1 (stereo unspecified) [THALIDOMIDE] sits at 6 G/DL or higher.
[A] satisfied

[Q] Assess whether reported TOTAL PROTEIN for Clc1ccc2c(c1)C(N1CCNCC1)=Nc1ccccc1O2 sits at 6 G/DL or higher.
[A] not satisfied

[Q] Assess whether reported TOTAL PROTEIN for CO[C@H]1/C=C/O[C@@]2(C)Oc3c(C)c(O)c4c(c3C2=O)C2=NC3(CCN(CC(C)C)CC3)NC2=C(NC(=O)/C(C)=C\C=C\[C@H](C)[C@H](O)[C@@H](C)[C@@H](O)[C@@H](C)[C@H](OC(C)=O)[C@@H]1C)C4=O sits at 6 G/DL or higher.
[A] not satisfied

[Q] Assess whether reported TOTAL PROTEIN for C#C[C@]1(O)CC[C@H]2[C@@H]3CCc4cc(OC)ccc4[C@H]3CC[C@@]21C sits at 6 G/DL or higher.
[A] not satisfied

[Q] Assess whether reported TOTAL PROTEIN for Cc1onc(-c2ccccc2)c1-c1ccc(S(N)(=O)=O)cc1 sits at 6 G/DL or higher.
[A] satisfied

[Q] Assess whether reported TOTAL PROTEIN for CNC(=C[N+](=O)[O-])NCCSCc1ccc(CN(C)C)o1 sits at 6 G/DL or higher.
[A] not satisfied

[Q] Assess whether reported TOTAL PROTEIN for N=C(N)NC(=O)c1nc(Cl)c(N)nc1N [AMILORIDE] sits at 6 G/DL or higher.
[A] satisfied

###

species: Rattus norvegicus; assay: DrugMatrix - Regimen: Daily Repeat; assay type: toxicity, organism-based, Sprague-Dawley; design: regimen Daily Repeat, gender Male, age 6-8 weeks; conditions: in vivo, po, 0 mg/kg, 120 h, tissue Plasma, route oral GAVAGE, dose level Control, time 5 day, […]
metric-name: GLUCOSE (mg/dL)
Use mg/dL as the unit, but write only the number.

[Q] Recorded GLUCOSE for COCCOC(=O)C1=C(C)NC(C)=C(C(=O)OC(C)C)C1c1cccc([N+](=O)[O-])c1 (stereo not given) , please?
[A] 162.83

[Q] Recorded GLUCOSE for CCCCCCCCc1ccc(O)cc1 , please?
[A] 184.17

[Q] Recorded GLUCOSE for Cc1cccc(Nc2ccncc2S(=O)(=O)NC(=O)NC(C)C)c1 [TORSEMIDE] , please?
[A] 182.83

[Q] Recorded GLUCOSE for CC(=O)Nc1cccc(O)c1 , please?
[A] 162.33

[Q] Recorded GLUCOSE for CC(C)(Oc1ccc(C2CCCc3ccccc32)cc1)C(=O)O (stereo not given) , please?
[A] 147.33

[Q] Recorded GLUCOSE for Clc1ccc(Cl)cc1 , please?
[A] 156

[Q] Recorded GLUCOSE for C[C@]12CC[C@@H]3c4ccc(O)cc4CC[C@H]3[C@@H]1CC[C@@H]2O , please?
[A] 182.83

[Q] Recorded GLUCOSE for C[C@H]1O[C@@H](O[C@H]2[C@@H](O)C[C@H](O[C@H]3[C@@H](O)C[C@H](O[C@H]4CC[C@@]5(C)[C@H](CC[C@@H]6[C@@H]5CC[C@]5(C)[C@@H](C7=CC(=O)OC7)CC[C@]65O)C4)O[C@@H]3C)O[C@@H]2C)C[C@H](O)[C@@H]1O , please?
[A] 157.5

[Q] Recorded GLUCOSE for CC(C)Cc1ccc(C(C)C(=O)O)cc1 (stereo not given) , please?
[A] 171.33

[Q] Recorded GLUCOSE for CC(=O)Nc1ccc(O)cc1 , please?
[A] 171.33
